ASSAY_REMARKS: Lipophilicity by reversed-phase TLC on RP-18 WF254s plates with standardization
TEST_SETTINGS: methanol/water
MEASURED_ENDPOINT: S (slope of the trend line RM vs φ)

Use the examples below as a reference point.
COMPOUND: CC(=O)Oc1cc(C)cc2oc(=O)cc(C)c12 [Compound 2a, 5-acetoxy-4,7-dimethylcoumarin]
MEASURED_ENDPOINT: S (slope of the trend line RM vs φ)
TEST_VALUE: 2.5335

COMPOUND: N#CCOc1cc(=O)oc2ccccc12 [Compound 4, 4-(cyanomethoxy)chromen-2-one]
MEASURED_ENDPOINT: S (slope of the trend line RM vs φ)
TEST_VALUE: 2.2036

A: CC(=O)c1cc2c(C)cc(=O)oc2cc1O [Compound 11, 6-Acetyl-7-hydroxy-4-methylcoumarin]
B: c1ccc(Cc2ccccc2)cc1 [Diphenylmethane, diphenylmethane, reference compound]
Lower value of S (slope of the trend line RM vs φ) belongs to which: A or B ? Your answer should be the label of the entry you select. A
(A: 1.8855, B: 4.067)

---

ASSAY_REMARKS: Lipophilicity by reversed-phase TLC on RP-18 WF254s plates with standardization
TEST_SETTINGS: dioxane/water
MEASURED_ENDPOINT: R M0 (lipophilicity extrapolated to 100 % water)
Form rule: numeric answer, no unit written next to it.

Use the examples below as a reference point.
COMPOUND: O=C1Nc2ccccc2C1=O [Isatine, isatine, reference compound]
TEST_VALUE: 0.3418
--
COMPOUND: Nc1ccc(Cl)cc1Cl [2,4-Dichloroaniline, 2,4-dichloroaniline, reference compound]
TEST_VALUE: 2.0135
--
COMPOUND: Nc1ccc(Cl)c(Cl)c1 [3,4-Dichloroaniline, 3,4-dichloroaniline, reference compound]
TEST_VALUE: 1.9357
--
COMPOUND: O=[N+]([O-])c1ccccc1O [2-Nitrophenol, 2-nitrophenol, reference compound]
TEST_VALUE: 1.0657

In the following, a different compound is considered.
Input O=c1ccc2ccc(O)cc2o1 [Compound 7, umbelliferone] , output reported R M0 (lipophilicity extrapolated to 100 % water). 0.6676

---

ASSAY_REMARKS: Lipophilicity by reversed-phase TLC on RP-18 WF254s plates with standardization
TEST_SETTINGS: acetonitrile/water
MEASURED_ENDPOINT: S (slope of the trend line RM vs φ)

COMPOUND: Cc1cc(OCC#N)c2c(C)cc(=O)oc2c1
TEST_VALUE: 3.3589
//
COMPOUND: N#CCOc1cc(=O)oc2ccccc12
TEST_VALUE: 2.8179
//
COMPOUND: CC(=O)c1cc2c(C)cc(=O)oc2cc1O [Compound 11, 6-Acetyl-7-hydroxy-4-methylcoumarin]
TEST_VALUE: 2.9356

---

ASSAY_REMARKS: Lipophilicity by reversed-phase TLC on RP-18 WF254s plates with standardization
TEST_SETTINGS: dioxane/water
MEASURED_ENDPOINT: S (slope of the trend line RM vs φ)

Use the examples below as a reference point.
MOLECULE: Nc1ccc(Cl)cc1Cl [2,4-Dichloroaniline, 2,4-dichloroaniline, reference compound]
S (slope of the trend line RM vs φ): 3.3036
//
MOLECULE: CC(=O)Nc1ccc(Cl)c(Cl)c1 [3,4-Dichloroacetanilide, reference compound]
S (slope of the trend line RM vs φ): 3.0847
//
MOLECULE: O=c1ccc2ccc(O)cc2o1 [Compound 7, umbelliferone]
S (slope of the trend line RM vs φ): 1.8746
//
MOLECULE: Cc1cc(O)c2c(C)cc(=O)oc2c1 [Compound 2, 5-hydroxy-4,7-dimethylcoumarin]
S (slope of the trend line RM vs φ): 3.3439
//
MOLECULE: O=[N+]([O-])c1ccccc1O [2-Nitrophenol, 2-nitrophenol, reference compound]
S (slope of the trend line RM vs φ): 2.2497

P: N#CCOc1cc(=O)oc2ccccc12 [Compound 4, 4-(cyanomethoxy)chromen-2-one]
Q: c1ccc(Nc2ccccc2)cc1 [Diphenylamine, diphenylamine, reference compound]
Lower value of S (slope of the trend line RM vs φ) belongs to which: P or Q ? Your answer should be the label of the entry you select. P
